target: pro-domain of MMP-7 (PDMMP-7) (Homo sapiens); construct: TRX-His tag (N, cleaved yes); made in house; assay: Fluorescence titration of peptides against MMP-7 pro-domain; format: binding; conditions: fluorescence spectroscopy, ex 280 nm, em 347 nm, 10 μM PDMMP-7, peptide titrated up to 1:80, PBS pH 7.4, 25 °C
Sequence (P09237 18-94 limits assumed): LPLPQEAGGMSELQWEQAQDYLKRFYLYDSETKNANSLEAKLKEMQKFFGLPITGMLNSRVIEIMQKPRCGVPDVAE
Ends that are not written are not given here.
REPORTED PROPERTY: pKd
For clarity, pKd is expressed as the negative log10 of concentration in mol/L.

MACROMOLECULE SEQUENCE: SGVYPIDDFDYESASGSGAD [S2-FE]
REPORTED PROPERTY: pKd
REPORTED: 3.34

MACROMOLECULE SEQUENCE: SGVYPIDDDDYDSASGSGAD [S2-D]
REPORTED PROPERTY: pKd
REPORTED: 3.26

MACROMOLECULE SEQUENCE: SGVYPIDDDDYASASGSGAD [S2-P]
REPORTED PROPERTY: pKd
REPORTED: 2.91

INPUT: Request: pKd, test system pro-domain of MMP-7 (PDMMP-7) (Homo sapiens), entry SGVYPIFDLDYDSASGSGAD [S2-FLD]
OUTPUT: 4.19

Attribution: paper PMC9180903
